src = patent US20220386606A1

Give Post-emergence action against DIGSA in % for every item shown.
# Test system: DIGSA
# Experiment Summary: Post-emergence herbicidal action against DIGSA
# Format: in vivo, Digitaria sanguinalis
# Assay Setup: 80 g/ha, visual assessment about 3 weeks after treatment vs untreated controls
Please make sure the unit comes right after the number.

Known results for compounds:
Entry CC#Cc1cc(C)c(C2=C(OC(=O)C(C)C)C3(CCC(COC)C3)NC2=O)c(Br)c1 (centres unmarked) [Example P-32] ; assay system DIGSA; Post-emergence action against DIGSA in % recorded at 100%

Entry CC#Cc1cc(C)c(C2=C(O)C3(CCC(COC)C3)NC2=O)c(Cl)c1 (centres unmarked) [Example I-06] ; assay system DIGSA; Post-emergence action against DIGSA in % recorded at 100%

Entry CC#Cc1cc(C)c(C2=C(OC(=O)OCC)C3(CCC(COCC)C3)NC2=O)c(Br)c1 (centres unmarked) [Example P-35] ; assay system DIGSA; Post-emergence action against DIGSA in % recorded at 100%

Entry CC#Cc1cc(Br)c(C2=C(OC(=O)OCC)C3(CCC(COC)C3)NC2=O)c(OCC)c1 (centres unmarked) [Example P-90] ; assay system DIGSA; Post-emergence action against DIGSA in % recorded at 90%

Entry CC#Cc1cc(C)c(C2=C(OC(=O)OCC)C3(CCC(COC)C3)NC2=O)c(Cl)c1 (centres unmarked) [Example P-18] ; assay system DIGSA; Post-emergence action against DIGSA in % recorded at 100%

Entry CC#Cc1cc(C)c(C2=C(OC(=O)C(C)C)C3(CCC(COC)C3)NC2=O)c(F)c1 (centres unmarked) [Example P-57] ; assay system DIGSA; Post-emergence action against DIGSA in % recorded at 100%

Entry CC#Cc1cc(C)c(C2=C(OC(=O)OCC)C3(CCC(COCC)C3)NC2=O)c(F)c1 (centres unmarked) [Example P-54] ; assay system DIGSA; Post-emergence action against DIGSA in % recorded at 100%

Further cases:
Entry CC#Cc1cc(Br)c(C2=C(OC(=O)OCC)C3(CCC(COCC)C3)NC2=O)c(OCC)c1 (centres unmarked) [Example P-89] ; assay system DIGSA; Post-emergence action against DIGSA in % recorded at 90%
